METHOD DESCRIPTION: antimalarial activity against Dd2 strain (AID 2302)
EXPERIMENTAL PARAMETERS: P. falciparum Dd2 in RBCs, LDH growth readout, 72 h; at 2 µM
Activity calls are given as the source filed them.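 Rule for the calls: active = growth inhibition above 50% at the single 2 µM test dose, taken to imply half-maximal potency below 2 µM; inactive = the rest.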
Outcomes: YES = active, NO = inactive

{"MOLECULE": "C=CCOC(=O)N1CCC(CNCc2cccc(-c3cccc(-c4nc5c(C)cccc5[nH]4)c3)c2)C1 (stereo not given)", "CLASS LABEL": "YES"}
{"MOLECULE": "Oc1ccc(-c2ccccc2)cc1CN1CCCCC1", "CLASS LABEL": "YES"}
{"MOLECULE": "O=C(Cc1cccs1)NCC(c1ccccc1Cl)c1c[nH]c2ccccc12 (stereo not given)", "CLASS LABEL": "YES"}
{"MOLECULE": "CCOC(=O)c1ccc(NC(=O)Nc2ccc(-c3cccc(-c4nc5c(C)cccc5[nH]4)c3)cc2)cc1", "CLASS LABEL": "YES"}
{"MOLECULE": "O=C(NCCN1CCCCC1)c1cc2cc(-c3ccccc3)ccc2n1S(=O)(=O)c1ccccc1", "CLASS LABEL": "NO"}
{"MOLECULE": "CCc1cccc2sc(N3CCN(C(=O)c4ccc([N+](=O)[O-])o4)CC3)nc12", "CLASS LABEL": "YES"}
{"MOLECULE": "Cc1ccc2nc(Cl)c3cc(C(=O)NCCCN4CCCC4)sc3c2c1", "CLASS LABEL": "NO"}
{"MOLECULE": "COc1ccc2nccc([C@@H](O)CN3CCC(NCc4nc5c(F)cc(F)cc5[nH]4)CC3)c2c1", "CLASS LABEL": "YES"}
{"MOLECULE": "COc1ccc(Cn2c(Nc3cccc(C(F)(F)F)c3)nc3cc(C(=O)NCCN4CCCC4)cnc32)cc1Cl", "CLASS LABEL": "NO"}
{"MOLECULE": "COc1ccc(CNC(=O)c2cnc3c(O)cccc3c2Nc2cccc(NC(=O)c3ccc(F)cc3)c2)cc1", "CLASS LABEL": "YES"}
{"MOLECULE": "O=C(Nc1ccc(Cl)cc1)c1cc(Cl)ccc1NC(=O)C1(c2ccc(Cl)cc2)CCCC1", "CLASS LABEL": "NO"}
{"MOLECULE": "Cc1cc(NN=Cc2ccccc2F)c2cccc(C)c2n1", "CLASS LABEL": "NO"}
{"MOLECULE": "CC(=O)Nc1ccc(CN(Cc2ccc(F)cc2)Cc2ccc3c(c2)OCO3)cc1", "CLASS LABEL": "YES"}
{"MOLECULE": "COc1cccc(C(C)(C)NC[C@@H](O)[C@H](Cc2ccccc2)NC(=O)c2cc(C3CCCC3)cc(N3CCCCS3(=O)=O)c2F)c1", "CLASS LABEL": "YES"}
{"MOLECULE": "Cc1cc(CN2CCC(Nc3ncc(-c4ccsc4)c4nc(C(F)(F)F)ccc34)CC2)no1", "CLASS LABEL": "YES"}
